Data credit: paper PMC10105652

target: VEB-1 (Escherichia coli); construct: gene blaVEB; natural allele amplified and cloned in pCR-Blunt II-TOPO, E. coli Top10; crude extract; assay: cephalothin hydrolysis, UV […] nm, crude extract; type: biochemical; settings: read-out: AVI; 100 µM cephalothin, 100 mM sodium phosphate pH 7.0, 3 min preincubation
Experimental Readout: IC50 (nM)
Reply numerically in nM, unit not repeated.

// query Please report the recorded IC50 for NC(=O)[C@@H]1CC[C@@H]2CN1C(=O)N2OS(=O)(=O)O [avibactam] .
// result 900

---

target: VEB-1 (Escherichia coli, UniProt Q7BVU7); construct: gene blaVEB; natural allele amplified and cloned in pCR-Blunt II-TOPO, E. coli Top10; crude extract; assay: cephalothin hydrolysis, UV […] nm, crude extract; format: biochemical; conditions: read-out: VAB; 100 µM cephalothin, 100 mM sodium phosphate pH 7.0, 3 min preincubation
Experimental Readout: IC50 (nM)
Reply numerically in nM, unit not repeated.

// query Please report the recorded IC50 for O=C(O)C[C@@H]1CC[C@H](NC(=O)Cc2cccs2)B(O)O1 [vaborbactam] .
// result 1100

---

target: VEB-1 (Escherichia coli, UniProt Q7BVU7); construct: gene blaVEB; natural allele amplified and cloned in pCR-Blunt II-TOPO, E. coli Top10; crude extract; assay: cephalothin hydrolysis, UV […] nm, crude extract; assay type: biochemical; conditions: 100 µM cephalothin, 100 mM sodium phosphate pH 7.0, 3 min preincubation; read-out: REL
Experimental Readout: IC50 (nM)
Reply numerically in nM, unit not repeated.

// query Please report the recorded IC50 for O=C(NC1CCNCC1)[C@@H]1CC[C@@H]2CN1C(=O)N2OS(=O)(=O)O .
// result 2400

---

target: VEB-1 (Escherichia coli); construct: gene blaVEB; natural allele amplified and cloned in pCR-Blunt II-TOPO, E. coli Top10; crude extract; assay: cephalothin hydrolysis, UV […] nm, crude extract; assay type: biochemical; conditions: read-out: CLA; 100 µM cephalothin, 100 mM sodium phosphate pH 7.0, 3 min preincubation
Reported IC50 values for the following compounds.
Reply numerically in µM, unit not repeated.

smiles_string=O=C(O)[C@H]1/C(=C/CO)O[C@@H]2CC(=O)N21 experimental_readout=IC50 units_text=µM experimental_result=0.05

Now examine the next entry.
// query Please report the recorded IC50 for C[C@]1(Cn2ccnn2)[C@H](C(=O)O)N2C(=O)C[C@H]2S1(=O)=O .
// result 0.05
